test system: U251 CNS; assay: NCI-60 one-dose screen, 48 h; settings: 10 µM unless noted
The panel holds about 83,000 compounds, 20% with a hit somewhere; the sample as a whole holds those more often. Calls of active or inactive are those of the source. Rule for the calls: active = growth percent below 10; inactive = the rest.
Labels: active, inactive

> print(dat)
                                    compound  assigned.class
 1  Clc1ccc(/C=C/c2cc(N3CCOCC3)c3cc(Cl)c(Cl)cc3n2)cc1        inactive
 2  CC1=CC2c3oc(-c4ccccc4)c(C(=O)c4ccccc4)c3CNC2C=C1 (centres undefined)        inactive
 3  CN1CCN(c2ccc(C(=O)Nc3n[nH]c4ccc(Cc5cc(F)cc(F)c5)cc34)c(NC3CCOCC3)c2)CC1          active
 4  FC(F)c1nc2ccccc2n1-c1nc(N2CCOCC2)nc(N2CCOCC2)n1          active
 5  CC(=O)Oc1ccccc1C(=O)N=C1[Se]CCN1C(=O)c1ccccc1OC(C)=O          active
 6  CC(C)(C)c1cnc(CSc2cnc(NC(=O)C3CCNCC3)s2)o1          active
 7  Cc1cc(Nc2ncnc3ccc(NC4=NC(C)(C)CO4)cc23)ccc1Oc1ccn2ncnc2c1        inactive
 8  C=C1CC[C@@H]2[C@](C)(COC(C)=O)[C@H](OC(C)=O)CC[C@@]2(C)[C@@H]1C/C=C1/C(=O)OC[C@H]1OC(C)=O        inactive
 9  O=C(COc1cccc(/C=C2\Cc3ccc(Cl)cc3C2=O)c1)Nc1nccs1        inactive
10              c1ccc2c(c1)CCN(NCCN1CCCC1)C2        inactive
11  Cn1cc(-c2ncnc3ccc(-c4cnc(Cl)c(NS(C)(=O)=O)c4)cc23)c2ccccc21        inactive
12  Cc1nc(N)sc1-c1ccnc(Nc2ccc(N3CCOCC3)cc2)n1        inactive
13  c1cn2cc(-c3ccc4cn[nH]c4c3)nc(Nc3ccc(N4CCOCC4)cc3)c2n1        inactive
14  Cc1[nH]c(/C=C2\C(=O)Nc3ccc(F)cc32)c(C)c1C(=O)NC[C@H](O)CN1CCOCC1        inactive
15  Cc1cnc(Nc2ccc(OCCN3CCCC3)cc2)nc1Nc1cccc(S(=O)(=O)NC(C)(C)C)c1        inactive
16  CN(C)C[C@@H]1CCn2cc(c3ccccc32)C2=C(C(=O)NC2=O)c2cn(c3ccccc23)CCO1          active
17  CC/C(=C(\c1ccc(OCCN2CCCCCCC2)cc1)c1ccc(OC(=O)C2CCCCC2)cc1)c1ccc(Cl)cc1        inactive
18  CC(=O)c1c(C)c2cnc(Nc3ccc(N4CCNCC4)cn3)nc2n(C2CCCC2)c1=O        inactive
19  COc1ccc(F)c(F)c1C(=O)c1cnc(NC2CCN(S(C)(=O)=O)CC2)nc1N          active

###

test system: A549/ATCC NSCLC; test: NCI-60 one-dose screen, 48 h (100 = growth as untreated, 0 = no growth, -100 = all killed); details: 10 µM unless noted
The panel holds about 83,000 compounds, 20% with a hit somewhere; the sample as a whole holds those more often.
property measured: growth (%)

> print(dat)
                                   molecule  property.measured  recorded.result
1  CNC(=O)c1cc(COc2nnc(Nc3ccc(Cl)cc3)c3ccoc23)ccn1             growth             35.3
2         CCOc1ccc(N=C(C)Nc2ccc(OCC)cc2)cc1             growth             95.3
3  Cc1cc(O)cc(-c2c(-c3ccnc(-c4cccnc4)c3)cnn2C)c1             growth             78.1
4  COC1CCC(N2C(=O)CNc3ncc(-c4ccc(C(C)(C)O)nc4)nc32)CC1 (stereo unspecified)             growth             2.75
5  Cc1ccc(N=C2CSc3nnc(-c4csc5c4CCCC5)n3N2)cc1             growth             26.5
6  C#Cc1cccc(Nc2ncnc3cc(OCCOC)c(OCCOC)cc23)c1             growth             41.5

Attribution: PubChem BioAssay (NCI)
